The measured values listed here are drawn from patent US6355799B1.

For each entry below, report its Pre-emerge Herbicidal Activity RICE value.
# System: upland rice (Oryza sp., var. Tebonnet, RICE)
# Protocol details: Pre-emerge test, crop safety
# Type: in vivo
# Experimental parameters: 63 g ai/ha; crop damage rating 0-100, 14 days after application

Find the recorded Pre-emerge Herbicidal Activity RICE belonging to `COc1c(Cl)cc(F)c(-n2c(=O)cc(C(F)(F)F)n(C)c2=O)c1NC(=O)OCc1cc(C)ccc1C` and report it.
35

Find the recorded Pre-emerge Herbicidal Activity RICE belonging to `COc1c(Cl)cc(F)c(-n2c(=O)cc(C(F)(F)F)n(C)c2=O)c1NC(=O)OCc1c(F)c(F)c(F)c(F)c1F` and report it.
20

Find the recorded Pre-emerge Herbicidal Activity RICE belonging to `COc1c(Cl)cc(F)c(-n2c(=O)cc(C(F)(F)F)n(C)c2=O)c1NC(=O)Nc1ccccc1` and report it.
0

Find the recorded Pre-emerge Herbicidal Activity RICE belonging to COc1c(Cl)cc(F)c(-n2c(=O)cc(C(F)(F)F)n(C)c2=O)c1NC(=O)OC(c1ccccc1)C1CC1 (stereo not drawn) and report it.
10

Find the recorded Pre-emerge Herbicidal Activity RICE belonging to `COc1c(Cl)cc(F)c(-n2c(=O)cc(C(F)(F)F)n(C)c2=O)c1NC(=O)OCc1ccc(F)cc1` and report it.
70

Find the recorded Pre-emerge Herbicidal Activity RICE belonging to `COc1c(Cl)cc(F)c(-n2c(=O)cc(C(F)(F)F)n(C)c2=O)c1NC(=O)OCc1ccc(C(F)(F)F)cc1` and report it.
0

Find the recorded Pre-emerge Herbicidal Activity RICE belonging to `Cn1c(C(F)(F)F)cc(=O)n(-c2c(F)cc(Cl)c(Oc3ncccc3[N+](=O)[O-])c2NC(=O)c2ccc3ccccc3c2)c1=O` and report it.
99

Find the recorded Pre-emerge Herbicidal Activity RICE belonging to `COc1c(Cl)cc(F)c(-n2c(=O)cc(C(F)(F)F)n(C)c2=O)c1NC(=O)OCc1cc(C)cc(C)c1` and report it.
10

Find the recorded Pre-emerge Herbicidal Activity RICE belonging to `COc1ccc(COC(=O)Nc2c(OC)c(Cl)cc(F)c2-n2c(=O)cc(C(F)(F)F)n(C)c2=O)cc1` and report it.
30

Find the recorded Pre-emerge Herbicidal Activity RICE belonging to `COC(=O)Nc1c(OC)c(Cl)cc(F)c1-n1c(=O)cc(C(F)(F)F)n(C)c1=O` and report it.
50

Find the recorded Pre-emerge Herbicidal Activity RICE belonging to `CCc1ccc(COC(=O)Nc2c(OC)c(Cl)cc(F)c2-n2c(=O)cc(C(F)(F)F)n(C)c2=O)cc1` and report it.
10

Find the recorded Pre-emerge Herbicidal Activity RICE belonging to `COc1c(Cl)cc(F)c(-n2c(=O)cc(C(F)(F)F)n(C)c2=O)c1NC(=O)OCc1ccccc1C(F)(F)F` and report it.
20

Find the recorded Pre-emerge Herbicidal Activity RICE belonging to `COc1c(Cl)cc(F)c(-n2c(=O)cc(C(F)(F)F)n(C)c2=O)c1NC(=O)OCc1ccc2c(c1)OCO2` and report it.
40

Find the recorded Pre-emerge Herbicidal Activity RICE belonging to `COc1c(Cl)cc(F)c(-n2c(=O)cc(C(F)(F)F)n(C)c2=O)c1NC(=O)OCc1ccc(C)c(C)c1` and report it.
0

Find the recorded Pre-emerge Herbicidal Activity RICE belonging to `CCCCCC(=O)Nc1c(OC)c(Cl)cc(F)c1-n1c(=O)cc(C(F)(F)F)n(C)c1=O` and report it.
30

---

For each entry below, report its phytotoxicity rating ECHCG value.
# System: barnyardgrass (Echinochloa crus-galli, ECHCG)
# Protocol details: Post-emerge test, greenhouse herbicide activity screening
# Assay type: in vivo
# Experimental parameters: post-emerge, 250 g ai/ha, 14 days after application, rating scale 0-100
Lab note: write the figure by itself, no unit.

Find the recorded phytotoxicity rating ECHCG belonging to `COc1c(Cl)cc(F)c(-n2c(=O)cc(C(F)(F)F)n(C)c2=O)c1NC(N)=O` and report it.
0

Find the recorded phytotoxicity rating ECHCG belonging to `COc1c(Cl)cc(F)c(-n2c(=O)cc(C(F)(F)F)n(C)c2=O)c1NC(=O)C=Cc1ccccc1Cl` and report it.
30

Find the recorded phytotoxicity rating ECHCG belonging to `COC(=O)N(C(=O)OC)c1c(OC)c(Cl)cc(F)c1-n1c(=O)cc(C(F)(F)F)n(C)c1=O` and report it.
0

Find the recorded phytotoxicity rating ECHCG belonging to `COc1c(Cl)cc(F)c(-n2c(=O)cc(C(F)(F)F)n(C)c2=O)c1NC(=O)OCc1ccccn1` and report it.
60

---

For each entry below, report its phytotoxicity rating RICE (crop damage) value.
# Tested on: upland rice (Oryza sp., var. Tebonnet, RICE)
# Protocol details: Pre-emerge test, crop safety
# Assay type: in vivo
# Experimental parameters: pre-emerge, 250 g ai/ha, 14 days after application, scale 0-100
Lab note: write the figure by itself, no unit.

Find the recorded phytotoxicity rating RICE (crop damage) belonging to CCSCC(=O)Nc1c(OC)c(Cl)cc(F)c1-n1c(=O)cc(C(F)(F)F)n(C)c1=O [2-172] and report it.
50

Find the recorded phytotoxicity rating RICE (crop damage) belonging to CCCSCC(=O)Nc1c(OC)c(Cl)cc(F)c1-n1c(=O)cc(C(F)(F)F)n(C)c1=O [2-174] and report it.
50

Find the recorded phytotoxicity rating RICE (crop damage) belonging to Cn1c(C(F)(F)F)cc(=O)n(-c2ccc(Cl)cc2NC(=O)C=Cc2ccccc2)c1=O [2-137] and report it.
50

---

# System: field corn (Zea mays L., var. Dekalb 535, CORN)
# Protocol details: Post-emerge test, crop safety
# Type: in vivo
# Experimental parameters: post-emerge, 63 g ai/ha, 14 days after application, rating scale 0-100
# Method: A standard greenhouse herbicide activity screening system was used to evaluate the herbicidal efficacy and crop safety of these test compounds. […] At 14 days after application of the test materials, phytotoxicity ratings were recorded. […]
Endpoint label: CORN phytotoxicity rating (crop damage)
Lab note: write the figure by itself, no unit.

Entry COc1c(Cl)cc(F)c(-n2c(=O)cc(C(F)(F)F)n(C)c2=O)c1NC(=O)CSC [2-168] , system field corn (Zea mays L., var. Dekalb 535, CORN): what CORN phytotoxicity rating (crop damage) was measured?
5

Entry Cn1c(C(F)(F)F)cc(=O)n(-c2ccc(C#N)cc2NC(=O)C=Cc2ccccc2)c1=O [2-141] , system field corn (Zea mays L., var. Dekalb 535, CORN): what CORN phytotoxicity rating (crop damage) was measured?
5

Entry COc1c(Cl)cc(F)c(-n2c(=O)cc(C(F)(F)F)n(C)c2=O)c1NC(=O)c1ccc2ccccc2c1OC [2-153] , system field corn (Zea mays L., var. Dekalb 535, CORN): what CORN phytotoxicity rating (crop damage) was measured?
5

---

For each entry below, report its Pre-emerge herbicidal activity, phytotoxicity rating CASOB value.
# System: sicklepod (Cassia obtusifolia, CASOB)
# Protocol details: Pre-emerge test, greenhouse herbicide activity screening
# Type: in vivo
# Experimental parameters: 250 g ai/ha; rating scale 0-100, 14 days after application
# Procedure: A standard greenhouse herbicide activity screening system was used to evaluate the herbicidal efficacy and crop safety of these test compounds. […] At 14 days after application of the test materials, phytotoxicity ratings were recorded. […]

Find the recorded Pre-emerge herbicidal activity, phytotoxicity rating CASOB belonging to COc1c(Cl)cc(F)c(-n2c(=O)cc(C(F)(F)F)n(C)c2=O)c1CC(C)(Cl)C(=O)OCC(F)(F)C(F)F (centres unmarked) and report it.
0

Find the recorded Pre-emerge herbicidal activity, phytotoxicity rating CASOB belonging to CCCOC(=O)C(C)(Cl)Cc1c(OC)c(Cl)cc(F)c1-n1c(=O)cc(C(F)(F)F)n(C)c1=O (centres unmarked) and report it.
0

Find the recorded Pre-emerge herbicidal activity, phytotoxicity rating CASOB belonging to C=CCOC(=O)C(C)(Cl)Cc1c(OC)c(Cl)cc(F)c1-n1c(=O)cc(C(F)(F)F)n(C)c1=O (centres unmarked) and report it.
0

Find the recorded Pre-emerge herbicidal activity, phytotoxicity rating CASOB belonging to COCCOC(=O)C(Cl)Cc1c(OC)c(Cl)cc(F)c1-n1c(=O)cc(C(F)(F)F)n(C)c1=O (centres unmarked) and report it.
100

Find the recorded Pre-emerge herbicidal activity, phytotoxicity rating CASOB belonging to CCCOC(=O)C(Cl)Cc1c(OC)c(Cl)cc(F)c1-n1c(=O)cc(C(F)(F)F)n(C)c1=O (single isomer, unassigned) and report it.
30

---

For each entry below, report its phytotoxicity rating CORN value.
# Test system: field corn (Zea mays L., var. Dekalb 535, CORN)
# Protocol details: Post-emerge test, crop safety
# Format: in vivo
# Experimental parameters: post-emerge, 250 g ai/ha, 14 days after application, rating scale 0-100

Find the recorded phytotoxicity rating CORN belonging to `COc1c(Cl)cc(F)c(-n2c(=O)cc(C(F)(F)F)n(C)c2=O)c1N(C(=O)c1ccc(F)c(F)c1)C(=O)c1ccc(F)c(F)c1` and report it.
10

Find the recorded phytotoxicity rating CORN belonging to `COc1c(Cl)cc(F)c(-n2c(=O)cc(C(F)(F)F)n(N)c2=O)c1NC(=O)c1ccc2ccccc2c1` and report it.
10

Find the recorded phytotoxicity rating CORN belonging to `COc1c(Cl)cc(F)c(-n2c(=O)cc(C(F)(F)F)n(C)c2=O)c1NC(=O)c1ccc(OC(F)(F)F)cc1` and report it.
10
